- Target Or System: UniProtKB P43235
- Sequence (P43235 115-329, species assumed): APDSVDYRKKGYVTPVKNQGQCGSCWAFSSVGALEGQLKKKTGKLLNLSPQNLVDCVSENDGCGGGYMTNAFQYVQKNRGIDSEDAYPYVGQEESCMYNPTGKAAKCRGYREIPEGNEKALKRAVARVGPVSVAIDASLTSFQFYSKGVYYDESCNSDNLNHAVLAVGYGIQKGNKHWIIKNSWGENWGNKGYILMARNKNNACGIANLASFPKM
- Test Description: Cathepsin K inhibition assay (fluorogenic peptide substrate); selectivity ratio vs cathepsin S
- Assay type: biochemical
- Recorded Conditions: ratio of cathepsin K inhibition constant to cathepsin S inhibition constant; Table II
Value Type: Selectivity for Cat. S over Cat. K

* COc1ccc(NCCNC(=O)[C@H](CC2CCCCC2)NC(=O)C2(c3ccccc3)CC2)cc1 [Compound 158] | ++ (++, >100)
* COc1ccc(NCCNC(=O)[C@H](CC2CCCCC2)NC(=O)c2cnn(-c3ccc(Cl)cc3)c2C(F)(F)F)cc1 [Compound 116] | +++ (+++, >1000)
* O=C(Cc1ccc(C(F)(F)F)cc1)N[C@@H](CC1CCCCC1)C(=O)NCCNc1ccc(F)cc1 [Compound 325] | ++ (++, >100)
* Cc1nc(-c2ccc(C(=O)N[C@@H](CC3CCCCC3)C(=O)NCCNc3ccc(OC(F)(F)F)cc3)cc2)no1 [Compound 27] | +++ (+++, >1000)
* COc1ccc(NCCNC(=O)[C@H](CC2CCCCC2)NC(=O)c2cc(Br)cc(Br)c2)cc1 [Compound 178] | +++ (+++, >1000)
* COc1ccc(NCCNC(=O)[C@H](Cc2ccc(-c3ccccc3C(C)=O)cc2)NC(=O)c2cccc(C)c2)cc1 [Compound 288] | ++ (++, >100)
* COc1ccc(NCCNC(=O)[C@H](CC2CCCCC2)NC(=O)c2cc(-c3ccc(OC)cc3)cs2)cc1 [Compound 191] | + (+, >10)
* O=C(N[C@@H](CC1CCCCC1)C(=O)NCCNc1ccc(OC(F)(F)F)cc1)c1ccsc1 [Compound 37] | ++ (++, >100)
* COc1ccc(NCCNC(=O)[C@H](CC2CCCCC2)NC(=O)c2cnn(-c3ccc(F)cc3)c2C)cc1 [Compound 161] | ++ (++, >100)
* CS(=O)(=O)c1ccc(C(=O)N[C@@H](CC2CCCCC2)C(=O)NCCNc2ccc(F)cc2)cc1 [Compound 313] | + (+, >10)
* COc1ccc(NCCNC(=O)[C@H](CCC2CCCCC2)NC(=O)c2cc3cc(Cl)ccc3o2)cc1 [Compound 134] | ++ (++, >100)
* COc1ccc(NCCNC(=O)C(NC(=O)c2cccc(C)c2)c2ccc(OC)cc2)cc1 (stereo not drawn) [Compound 211] | ++ (++, >100)
* COc1cc(OC)nc(Oc2cccc(C(=O)N[C@@H](CC3CCCCC3)C(=O)NCCNc3ccc(OC(F)(F)F)cc3)c2)n1 [Compound 73] | ++ (++, >100)
* COc1ccc(NCCNC(=O)[C@H](CCC2CCCCC2)NC(=O)c2ccc(-c3cccc(C(F)(F)F)c3)o2)cc1 [Compound 136] | ++ (++, >100)
* COc1ccc(NCCNC(=O)[C@H](CCc2ccccc2)NC(=O)c2cccc(C)c2)cc1 [Compound 206] | ++ (++, >100)
* COc1ccc(NCCNC(=O)[C@H](Cc2ccc(-c3ccccc3[N+](=O)[O-])cc2)NC(=O)c2cccc(C)c2)cc1 [Compound 273] | ++ (++, >100)
* COc1ccc(NCCNC(=O)[C@H](CCCC2CCCCC2)NC(=O)c2cccc(C)c2)cc1 [Compound 203] | +++ (+++, >1000)
* COc1ccc(NCCNC(=O)[C@H](CC=Cc2ccccc2)NC(=O)c2cccc(C)c2)cc1 [Compound 208] | +++ (+++, >1000)
* O=C(N[C@@H](CC1CCCCC1)C(=O)NCCNc1ccc(OC(F)(F)F)cc1)c1ccc(-c2cccc(F)c2)cc1 [Compound 198] | + (+, >10)
* O=C(N[C@@H](CC1CCCCC1)C(=O)NCCNc1ccc(OC(F)(F)F)cc1)c1ccc(-c2ccccc2C(F)(F)F)s1 [Compound 35] | + (+, >10)
* COc1ccc(NCCNC(=O)[C@H](Cc2ccc(Oc3ccc(C)cc3)cc2)NC(=O)c2cccc(C)c2)cc1 [Compound 45] | +++ (+++, >1000)
* CC(=O)N1CCN(c2ccc(OCC(=O)N[C@@H](CC3CCCCC3)C(=O)NCCNc3ccc(OC(F)(F)F)cc3)cc2)CC1 [Compound 15] | + (+, >10)
* COc1ccc(NCCNC(=O)[C@H](Cc2ccc(OCc3ccccc3)cc2)NC(=O)c2cccc(C)c2)cc1 [Compound 247] | +++ (+++, >1000)
* COc1ccc(NCCNC(=O)[C@H](Cc2ccc(-c3cccc(C(C)=O)c3)cc2)NC(=O)c2cccc(C)c2)cc1 [Compound 290] | +++ (+++, >1000)
